Taken from patent US20260167721A1.

Some binders, each annotated with its measured kon.
Subject of test: T1, recombinant human CD3 epsilon/delta heterodimer (human, UniProt P07766 23-126; P04234 22-105)
T1 construct: Recombinant heterodimer used as analyte in Octet; also called hCD3 E/D; human CD3E/D
Assay overview: BLI (Octet), mAb 5 ug/mL on FAB2G sensor, hCD3 E/D 200-50 nM
Mention the unit after the number when you answer.

- Binder: "ABL-CD3-80 (antibody, V domains shown, mAb purified from hybridoma; chimeric AlivaMab IgG (human VH, CH1 and upper hinge; mouse middle hinge, CH2, CH3; human light chain)) VH: EVQLVESGGGLVKPGGSLRLSCAASGFTFSGYSMNWVRQAPGKGLEWVSSISSRSRYIYYADSVQGRFTISRDNSKNSLFLQMNSLRAEDTAVYYCGRDWRELLLDYWGQGTLVTVSS VL: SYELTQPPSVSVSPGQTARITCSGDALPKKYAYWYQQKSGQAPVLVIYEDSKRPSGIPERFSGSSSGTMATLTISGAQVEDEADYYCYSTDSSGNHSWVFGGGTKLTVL"
  Recorded endpoint: "kon"
  Experimental result: "86200 M⁻¹ s⁻¹"

Sure, the documented kon for ABL-CD3-67 (antibody, V domains shown, mAb purified from hybridoma; chimeric AlivaMab IgG (human VH, CH1 and upper hinge; mouse middle hinge, CH2, CH3; human light chain)) VH: EVQLVESGGGLVKPGGSLRLSCAASGFTVSSYSMNWVRQAPGKGLEWVSSISRSSSYIYYADSVKGRFTISRDNAKNSLFLQMNSLRAEDTAVYYCARERWELLYFDYWGQGTLVTVSS VL: NFMLTQPHSVSESPGKTVTISCTRSSGSIASNYVQWYRQRPGSSPTTVIYEDNQRPSGVPDRFSGAIDSSSTSASLTISGLKTEDEADYYCQSYDSSNRVFGGGTKLTVL is 90800 M⁻¹ s⁻¹
